List of binding signal values.
Biological target: T1, RBFOX1 RRM RbFoxmut (Fox-RRM*) (Homo sapiens, UniProt Q9NWB1 109-208, R118D;E147R;N151S;E152T)
T1 sequence: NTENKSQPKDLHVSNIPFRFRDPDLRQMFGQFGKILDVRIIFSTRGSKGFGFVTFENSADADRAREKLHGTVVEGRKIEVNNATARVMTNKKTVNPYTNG
Experiment: EMSA; HiTS-Eq, 1 nM pool, 10 min; buffer printed only for the single-RNA assays: 10 mM Tris pH 7.5, 150 mM NaCl, 3.4 mM EDTA, 0.001% NP-40, 30 C
Settings: tags: His6 N-terminal (pET28a); label: 5' 32P
The full ranking holds about 16,000 sequences; the median of “ka relative to ugcaugu” is about 0.096, and the highest 2% start at about 0.35. What follows is part of a selection rich in the highest values, with near analogues and random picks from the rest.
MEASURE_NAME: binding signal

binder="AGCAUAU (DNA:RNA) RNA: GGGAGACCGGAAUUCAGAUUGUCCAGCAUAUUUAAAUCCCGUCGUAGCCACCA DNA 1: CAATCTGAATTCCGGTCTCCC DNA 2: TGGTGGCTACGACGGGATT" reported_measurement="0.133 KA relative to UGCAUGU"
binder="AUGGUUG (DNA:RNA) RNA: GGGAGACCGGAAUUCAGAUUGUCCAUGGUUGUUAAAUCCCGUCGUAGCCACCA DNA 1: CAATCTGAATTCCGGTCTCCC DNA 2: TGGTGGCTACGACGGGATT" reported_measurement="0.48 KA relative to UGCAUGU"
binder="AGCAUUG (DNA:RNA) RNA: GGGAGACCGGAAUUCAGAUUGUCCAGCAUUGUUAAAUCCCGUCGUAGCCACCA DNA 1: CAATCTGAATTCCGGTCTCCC DNA 2: TGGTGGCTACGACGGGATT" reported_measurement="0.2 KA relative to UGCAUGU"
binder="CAAGCAG (DNA:RNA) RNA: GGGAGACCGGAAUUCAGAUUGUCCCAAGCAGUUAAAUCCCGUCGUAGCCACCA DNA 1: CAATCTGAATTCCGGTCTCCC DNA 2: TGGTGGCTACGACGGGATT" reported_measurement="0.0856 KA relative to UGCAUGU"
binder="AUGUUGG (DNA:RNA) RNA: GGGAGACCGGAAUUCAGAUUGUCCAUGUUGGUUAAAUCCCGUCGUAGCCACCA DNA 1: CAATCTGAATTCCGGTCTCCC DNA 2: TGGTGGCTACGACGGGATT" reported_measurement="0.123 KA relative to UGCAUGU"
binder="AGCAUGU (DNA:RNA) RNA: GGGAGACCGGAAUUCAGAUUGUCCAGCAUGUUUAAAUCCCGUCGUAGCCACCA DNA 1: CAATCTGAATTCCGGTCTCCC DNA 2: TGGTGGCTACGACGGGATT" reported_measurement="0.713 KA relative to UGCAUGU"
binder="UAGCAUC (DNA:RNA) RNA: GGGAGACCGGAAUUCAGAUUGUCCUAGCAUCUUAAAUCCCGUCGUAGCCACCA DNA 1: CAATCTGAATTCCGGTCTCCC DNA 2: TGGTGGCTACGACGGGATT" reported_measurement="0.266 KA relative to UGCAUGU"
binder="UAGCAUA (DNA:RNA) RNA: GGGAGACCGGAAUUCAGAUUGUCCUAGCAUAUUAAAUCCCGUCGUAGCCACCA DNA 1: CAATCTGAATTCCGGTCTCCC DNA 2: TGGTGGCTACGACGGGATT" reported_measurement="0.0997 KA relative to UGCAUGU"
binder="AAGCUUU (DNA:RNA) RNA: GGGAGACCGGAAUUCAGAUUGUCCAAGCUUUUUAAAUCCCGUCGUAGCCACCA DNA 1: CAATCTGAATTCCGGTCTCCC DNA 2: TGGTGGCTACGACGGGATT" reported_measurement="0.0764 KA relative to UGCAUGU"
